System: NCI/ADR-RES ovarian
measurement protocol: NCI-60 one-dose screen, 48 h (100 = growth as untreated, 0 = no growth, -100 = all killed)
condition context: 10 µM unless noted
The panel holds about 83,000 compounds, 20% with a hit somewhere; the sample as a whole holds those more often.
measured parameter: growth (%)
Answer in %, number only, no unit symbol.

Worked examples, 5 molecules total:
Cc1ccc(C2=NN3C(C2)c2cc(Br)ccc2OC32CCN(Cc3ccccc3)CC2)o1 (centres undefined) : 94
O=C1c2ccccc2OC=C(c2ccccc2)N1CCCCNc1ccc(S(=O)(=O)Nc2ncccn2)cc1 : 98.6
Cc1nn(-c2cc(=O)[nH]c3ccccc23)c(N)c1C#N : 108
COc1ccc(-c2nnc(SCC(=O)c3ccc(Cl)cc3)o2)cc1 : 95.6
CC[C@H]1OC(=O)[C@H](C)[C@@H](O[C@H]2C[C@@](C)(OC)[C@@H](O)[C@H](C)O2)[C@H](C)[C@@H](O[C@@H]2O[C@H](C)C[C@H](N(C)C)[C@H]2O)[C@](C)(O)C[C@H](C)CN(C)[C@H](C)[C@@H](O)[C@]1(C)O : 95.2

q: Fill blank: measured growth of the molecule O=C(N=Nc1c(O)[nH]c2ccccc12)c1cc(-c2ccccc2)on1 is ____.
a: 105

q: Fill blank: measured growth of the molecule C(=C\c1nccc2c1[nH]c1ccccc12)/c1ccccc1 is ____.
a: 15.5

q: Fill blank: measured growth of the molecule C#CC(F)(F)[C@]1(O)CC[C@H]2[C@@H]3CCC4=CC(=O)CCC4=C3[C@@H](c3ccc(C4CC4)cc3)C[C@@]21C is ____.
a: 11

q: Fill blank: measured growth of the molecule CC(=O)O[C@H]1CC[C@]2(C)[C@H]3CC=C4[C@@H]5CC(C)(C)CC[C@]5(C(=O)NCCNCCNCCN)CC[C@@]4(C)[C@]3(C)CC[C@H]2C1(C)C is ____.
a: 74.6

---

Test system: 786-0 renal
measurement protocol: NCI-60 one-dose screen, 48 h (100 = growth as untreated, 0 = no growth, -100 = all killed)
condition context: 10 µM unless noted
Compounds without any hit were thinned out: in the full panel of roughly 83,000, 20% have a hit. Active and inactive are the calls of the source. How the source made its calls: active means growth percent below 10; inactive means the rest.
measured parameter: growth

CC(=O)O[C@H]1[C@@H]2OC(=O)C(CSc3ccccc3)[C@@H]2C[C@H]2O[C@]2(C)CC/C=C(\C)CCC[C@@H]1C (stereo not given in full) : 61.4% (inactive)
O=c1ccccc(-c2ccc(Br)cc2)c1O : 8.52% (active)
COc1cc2c(cc1OC)C(Sc1ccc(SC)cc1)c1c(nc(N)c(C#N)c1N)O2 (stereo not given) : -80.7% (active)

q: Fill blank: measured growth of the molecule COc1ccc(Nc2nc(SC)nc(-c3cccc([N+](=O)[O-])c3)c2C#N)cc1 is ____.
a: 21.8% (inactive)

q: Fill blank: measured growth of the molecule COc1ccc(C2Nc3c(c(C(C)(C)C)nn3-c3ccccc3)C(=O)CS2)cc1 (stereo not given) is ____.
a: 113% (inactive)

---

Reported growth by item:
Test system: COLO 205 colon
measurement protocol: NCI-60 one-dose screen, 48 h (100 = growth as untreated, 0 = no growth, -100 = all killed)
condition context: 10 µM unless noted
About 83,000 compounds went through this panel and 20% of them were active in at least one assay; those are over-represented in the sample as a whole.
Answer in %, number only, no unit symbol.

Worked examples, 4 molecules total:
CCCN1CCN(c2ccc3nc(-c4ccc5nc(-c6ccc(OCC)cc6)[nH]c5c4)[nH]c3c2)CC1 : -32
CCC(=O)c1ccc(Cl)s1 : 101
CC1=NN(c2nc(-c3ccc(Cl)cc3)c(C#N)c(N3CCOCC3)n2)C(=O)C1 : 104
O=C1Nc2c(ccc(Cl)c2Cl)/C1=C\c1ccc(C(F)(F)F)cc1 : 100

// switching to the query molecule
q: Fill blank: measured growth of the molecule C=C1c2nc3ccccc3n2C=C(c2ccc(Cl)cc2)N1Cc1ccc(OC)cc1 is ____.
a: 71.1

---

Tested on: SK-MEL-28 melanoma
measurement protocol: NCI-60 one-dose screen, 48 h
condition context: 10 µM unless noted
Description: Growth inhibition of the SK-MEL-28 human tumor cell line is measured as a screen for anti-cancer activity. Cells are grown in 96 well plates and exposed to the test compound for 48 hours. Compounds are tested at a single concentration, which is 10^-5 M for most compounds. The reported endpoint is percent growth (GI% or GIPRCNT), where numbers from 0 - 100% represent growth inhibition, and numbers from -100% - 0 represent cell death. For example, a value of 40 represents 60% growth inhibition. […]
Compounds without any hit were thinned out: in the full panel of roughly 83,000, 20% have a hit. Active and inactive are the calls of the source. The calls were made as follows: active = growth percent below 10; inactive = the rest.
Outcomes you can answer with include only these: 1.0 for active, 0.0 for inactive

Solved entries:
O=C1NC(=O)C(c2ccc(Cl)cc2Cl)N1 (stereo not given) : 0.0
COc1cc(-c2nc3ccccc3[nH]2)ccc1OCC(=O)N=Nc1c(O)[nH]c2ccc(Cl)cc12 : 1.0
Cn1c(NCCc2ccc(O)c(O)c2)nc2c1c(=O)n(Cc1ccc(Cl)c(Cl)c1)c(=O)n2C : 0.0
O=C1C=C(OCC=C(Cl)Cl)C(=O)c2ccccc21 : 0.0
CN(CCCCCl)P(=O)(OCc1ccc([N+](=O)[O-])o1)C(F)(F)c1ccc(CC(=O)NC[C@@H](O)/C=C\[C@@H](O)[C@H](CO)Cc2ccccc2)cc1 (stereo not given in full) : 0.0
COc1ccc(C(=O)c2sc3nc(C)cc(C)c3c2N)cc1OC : 0.0
NC1=C(Cl)C(=O)c2ccc(S(N)(=O)=O)cc2C1=O : 1.0
CSc1ccc(SC2c3ccc(C)cc3Oc3nc(N)c(C#N)c(N)c32)cc1 (stereo not given) : 1.0

q: State the result this test recorded for C=CCSSC1N=CNc2nc[nH]c21 (stereo not given) .
a: 0.0

q: State the result this test recorded for COc1cc(/C=C/C(=O)c2cccnc2Nc2ccc(F)cc2)cc(OC)c1OC .
a: 0.0

q: State the result this test recorded for Cc1[nH]c(-c2cc(N)ccc2Cl)c2c1C(=O)CCCC2 .
a: 0.0

q: State the result this test recorded for O=C1c2cc3c(cc2-c2c1c1ccc(F)cc1c(=O)n2C[C@H](O)[C@H](O)[C@H](O)CO)OCO3 .
a: 1.0

q: State the result this test recorded for COc1cccc(-c2nc3sccn3c2-c2ccnc(NCCCNS(=O)(=O)c3c(Cl)cccc3Cl)c2)c1 .
a: 0.0

q: State the result this test recorded for O=C(C(=O)c1ccc2c(c1)OCO2)c1ccc2c(c1)OCO2 .
a: 0.0

q: State the result this test recorded for CNC(=O)c1cc(Oc2ccc(NC(=O)Nc3ccc(Cl)c(SC)c3)c(F)c2)ccn1 .
a: 0.0

q: State the result this test recorded for C=CC(COC(c1ccccc1)(c1ccccc1)c1ccccc1)N(CC)CC (stereo not given) .
a: 0.0

---

Tested on: SK-MEL-28 melanoma
measurement protocol: NCI-60 one-dose screen, 48 h
condition context: 10 µM unless noted
Method: Growth inhibition of the SK-MEL-28 human tumor cell line is measured as a screen for anti-cancer activity. Cells are grown in 96 well plates and exposed to the test compound for 48 hours. Compounds are tested at a single concentration, which is 10^-5 M for most compounds. The reported endpoint is percent growth (GI% or GIPRCNT), where numbers from 0 - 100% represent growth inhibition, and numbers from -100% - 0 represent cell death. For example, a value of 40 represents 60% growth inhibition. […]
The panel holds about 83,000 compounds, 20% with a hit somewhere; the sample as a whole holds those more often. Activity calls are given as the source filed them. Rule for the calls: active = growth percent below 10; inactive = the rest.
Outcomes you can answer with include only these: true (1) (active), false (0) (inactive)

Solved entries:
Cc1cc(C)nc(SC2=C(Nc3ccc(O)cc3)C(=O)N(Cc3ccccc3)C2=O)n1 : false (0)
CN1CCN(c2ccc3nc(-c4ccc(OCCCCN5CCN(CCCCN6C(=O)c7cccc8cccc(c78)C6=O)CC5)cc4)[nH]c3c2)CC1 : false (0)
COc1cc2nnc3c4cccnc4[nH]c3c2cc1OC : false (0)
COc1cc2c(cc1-c1c(C)noc1C)ncc1nc(C3CCCC3)n([C@H](C)COC(F)F)c12 : false (0)
CC(C)(C)N1CCC1CN (stereo not drawn) : false (0)
CCN1CCN(c2nc(NCCCNc3ccnc4cc(Cl)ccc34)c3ccccc3n2)CC1 : true (1)
COc1cccc(C2=NN3C(C2)c2cc(Br)cc(OC)c2OC32CCN(Cc3ccccc3)CC2)c1 (stereo not drawn) : false (0)
Cc1ccc(NS(=O)(=O)c2ccc(-c3cnc(C4CC4)o3)cc2)cc1C : false (0)
CCCCN(CCCC)CCCn1c(-c2ccccc2)ccc1-c1ccccc1 : false (0)
O=C(Nc1cccc2[nH]c(C(F)(F)F)nc12)c1ccc(-n2cnnn2)cc1 : false (0)

q: State the result this test recorded for CCCCCCN(CCCCCC)C(=N)c1ccnc2ccccc12 .
a: false (0)

q: State the result this test recorded for O=C(COc1cccc(/C=C2\COc3ccccc3C2=O)c1)Nc1nccs1 .
a: true (1)

q: State the result this test recorded for C=C(C)[C@@H]1CC[C@]2(C(N)=O)CC[C@]3(C)[C@H](CC[C@@H]4[C@@]5(C)C/C(=C/c6ccco6)C(=O)C(C)(C)[C@@H]5CC[C@]43C)[C@@H]12 .
a: false (0)

q: State the result this test recorded for CC1=C[C@H]2c3c(c(O)c(O)c4oc5cc(O)ccc5c(=O)c34)[C@H](c3cc(O)c(O)c4oc5cc(O)ccc5c(=O)c34)[C@H]2C(C)(C)C1 .
a: false (0)

q: State the result this test recorded for Cc1ccc2c(c1)C(=O)/C(=C/c1cccc(OCC(=O)c3ccc(Cl)cc3)c1)CS2 .
a: false (0)

q: State the result this test recorded for CC1=C(O)C(=O)C(C(C#N)(C#N)C(C#N)C#N)C1 (stereo not drawn) .
a: false (0)

q: State the result this test recorded for O=[N+]([O-])c1ccc2c(c1)Cc1cc(F)ccc1-2 .
a: false (0)

q: State the result this test recorded for CCc1nc(N)nc(N)c1C#CC(C)c1ccc(-c2ccncc2)cc1Cl (stereo not drawn) .
a: false (0)
